Note to self: these compounds have pIC50 reported for Activin receptor type-1 (Homo sapiens) in various publications.
pIC50 is a log-scale quantity: -log10 of the concentration expressed in molar.

Data request: Suppose we examine the compound CC(=O)NCc1ccc2[nH]c(-c3cc(-c4ccncc4)c[nH]c3=O)nc2c1 ; what pIC50 value has been reported?
Data returned: 5.51

Data request: Suppose we examine the compound Cc1ccc2c(-c3cnn4cc(-c5ccc(OCCN6CCCCC6)cn5)cnc34)cccc2n1 ; what pIC50 value has been reported?
Data returned: 7.07

Data request: Suppose we examine the compound CN1CCN(c2ccc3[nH]c(-c4cc(-c5ccnc6ccccc56)c[nH]c4=O)nc3c2)CC1 ; what pIC50 value has been reported?
Data returned: 7.20

Continuing:
Data request: Suppose we examine the compound CCn1cc(-c2ccnc(Nc3ccc(S(=O)(=O)N(C)C4CCN(C(C)C)CC4)cc3)n2)c(-c2cccnc2)n1 ; what pIC50 value has been reported?
Data returned: 7.21

Data request: Suppose we examine the compound CCn1cc(-c2ccnc(Nc3ccc4c(c3)CCNC4)n2)c(-c2cccnc2)n1 ; what pIC50 value has been reported?
Data returned: 7.37

Data request: Suppose we examine the compound CCn1cc(-c2ccnc(Nc3ccc(N4CCC(N)(CC)CC4)cc3)n2)c(-c2cccnc2)n1 ; what pIC50 value has been reported?
Data returned: 8.46

Data request: Suppose we examine the compound CCn1cc(-c2ccnc(Nc3ccc4c(c3)CCNCC4)n2)c(-c2cccnc2)n1 ; what pIC50 value has been reported?
Data returned: 7.77

Data request: Suppose we examine the compound CCn1cc(-c2ccnc(Nc3ccc(N4CCN(Cc5ccccc5)CC4)cc3)n2)c(-c2cccnc2)n1 ; what pIC50 value has been reported?
Data returned: 7.60

---

Note to self: these compounds have IC50 reported for Activin receptor type-1 (Homo sapiens, UniProt Q04771) in various publications.

Reference set (5 entries):
Data request: What is its IC50 for Activin receptor type-1 (Homo sapiens, UniProt Q04771)? Entry: COCCn1cc(-c2ccnc(Nc3ccc(N4CCNCC4)cc3)n2)c(-c2cccnc2)n1
Data returned: 40 nM

Data request: What is its IC50 for Activin receptor type-1 (Homo sapiens, UniProt Q04771)? Entry: CS(=O)(=O)c1cccc(Nc2ncc3cc(-c4ccccc4Cl)ccc3n2)c1
Data returned: > 100000 nM

Data request: What is its IC50 for Activin receptor type-1 (Homo sapiens, UniProt Q04771)? Entry: CN1CCN(c2ccc3[nH]c(-c4cc(-c5ccncc5)c[nH]c4=O)nc3c2)CC1
Data returned: 99 nM

Data request: What is its IC50 for Activin receptor type-1 (Homo sapiens, UniProt Q04771)? Entry: CN1CCCN(c2ccc3[nH]c(-c4cc(-c5ccnc6[nH]ccc56)c[nH]c4=O)nc3c2)CC1
Data returned: 26 nM

Data request: What is its IC50 for Activin receptor type-1 (Homo sapiens, UniProt Q04771)? Entry: CCn1cc(-c2ccnc(Nc3ccc(C(=O)N4CCN(c5ccc(F)cc5)CC4)cc3)n2)c(-c2cccnc2)n1
Data returned: 24.2 nM

Continuing:
Data request: What is its IC50 for Activin receptor type-1 (Homo sapiens, UniProt Q04771)? Entry: CCn1cc(-c2ccnc(Nc3ccc(N4CCNCC4)c(F)c3)n2)c(-c2cccnc2)n1
Data returned: 15 nM

Data request: What is its IC50 for Activin receptor type-1 (Homo sapiens, UniProt Q04771)? Entry: CN1CCN(c2ccc3[nH]c(-c4cc(-c5cccnc5)c[nH]c4=O)nc3c2)CC1
Data returned: 3400 nM

Data request: What is its IC50 for Activin receptor type-1 (Homo sapiens, UniProt Q04771)? Entry: O=c1[nH]cc(-c2ccnc3[nH]ccc23)cc1-c1nc2ccccc2[nH]1
Data returned: 120 nM

Data request: What is its IC50 for Activin receptor type-1 (Homo sapiens, UniProt Q04771)? Entry: N#Cc1cccc(Cn2cc(-c3ccnc(Nc4ccc(N5CCNCC5)cc4)n3)c(-c3cccnc3)n2)c1
Data returned: 6.1 nM

Data request: What is its IC50 for Activin receptor type-1 (Homo sapiens, UniProt Q04771)? Entry: c1cncc(-c2nn(C3COC3)cc2-c2ccnc(Nc3ccc(N4CCN(C5COC5)CC4)cc3)n2)c1
Data returned: 18 nM

Data request: What is its IC50 for Activin receptor type-1 (Homo sapiens, UniProt Q04771)? Entry: CCn1cc(-c2ccnc(Nc3ccc(N4CCN(C(C)C)CC4)cc3)n2)c(-c2cccnc2)n1
Data returned: 6.6 nM

Data request: What is its IC50 for Activin receptor type-1 (Homo sapiens, UniProt Q04771)? Entry: CCn1cc(-c2ccnc(Nc3ccc4c(c3)CCN(C(=O)CO)C4)n2)c(-c2cccnc2)n1
Data returned: 46.8 nM

Data request: What is its IC50 for Activin receptor type-1 (Homo sapiens, UniProt Q04771)? Entry: Cn1c(=O)c(-c2ccccc2Cl)cc2cnc(Nc3cccc(S(C)(=O)=O)c3)cc21
Data returned: > 100000 nM
